- target_desc: PI3Kδ (Homo sapiens)
- Construct: endogenous in cells; host or cells: Raji (ATCC #CCL-86)
- Sequence (O00329 whole entry): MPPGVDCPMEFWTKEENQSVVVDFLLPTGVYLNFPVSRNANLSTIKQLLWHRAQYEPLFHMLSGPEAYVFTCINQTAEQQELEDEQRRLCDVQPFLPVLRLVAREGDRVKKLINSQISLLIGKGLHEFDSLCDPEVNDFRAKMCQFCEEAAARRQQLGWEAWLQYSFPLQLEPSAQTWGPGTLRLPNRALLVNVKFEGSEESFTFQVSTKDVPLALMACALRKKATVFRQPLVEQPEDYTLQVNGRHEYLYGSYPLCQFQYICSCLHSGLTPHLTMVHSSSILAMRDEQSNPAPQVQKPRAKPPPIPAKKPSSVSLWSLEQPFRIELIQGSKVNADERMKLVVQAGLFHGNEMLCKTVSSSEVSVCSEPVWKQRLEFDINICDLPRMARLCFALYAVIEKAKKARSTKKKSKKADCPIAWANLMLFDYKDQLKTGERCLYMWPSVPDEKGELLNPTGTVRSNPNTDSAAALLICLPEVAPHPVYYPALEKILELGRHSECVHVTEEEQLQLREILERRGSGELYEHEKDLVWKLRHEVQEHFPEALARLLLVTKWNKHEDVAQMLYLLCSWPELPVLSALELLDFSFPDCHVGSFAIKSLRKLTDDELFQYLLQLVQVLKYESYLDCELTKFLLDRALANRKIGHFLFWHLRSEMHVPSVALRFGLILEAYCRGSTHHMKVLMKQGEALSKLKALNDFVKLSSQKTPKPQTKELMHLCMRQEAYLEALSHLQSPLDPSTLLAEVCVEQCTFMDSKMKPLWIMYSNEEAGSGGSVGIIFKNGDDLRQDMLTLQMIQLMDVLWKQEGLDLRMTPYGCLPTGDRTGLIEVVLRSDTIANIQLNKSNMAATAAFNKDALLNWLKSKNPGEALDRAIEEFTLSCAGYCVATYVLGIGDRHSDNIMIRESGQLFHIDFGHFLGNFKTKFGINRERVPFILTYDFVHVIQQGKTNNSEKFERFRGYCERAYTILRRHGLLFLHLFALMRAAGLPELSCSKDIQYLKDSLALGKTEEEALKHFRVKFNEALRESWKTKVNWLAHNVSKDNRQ
- Sequence (P27986 whole entry partner): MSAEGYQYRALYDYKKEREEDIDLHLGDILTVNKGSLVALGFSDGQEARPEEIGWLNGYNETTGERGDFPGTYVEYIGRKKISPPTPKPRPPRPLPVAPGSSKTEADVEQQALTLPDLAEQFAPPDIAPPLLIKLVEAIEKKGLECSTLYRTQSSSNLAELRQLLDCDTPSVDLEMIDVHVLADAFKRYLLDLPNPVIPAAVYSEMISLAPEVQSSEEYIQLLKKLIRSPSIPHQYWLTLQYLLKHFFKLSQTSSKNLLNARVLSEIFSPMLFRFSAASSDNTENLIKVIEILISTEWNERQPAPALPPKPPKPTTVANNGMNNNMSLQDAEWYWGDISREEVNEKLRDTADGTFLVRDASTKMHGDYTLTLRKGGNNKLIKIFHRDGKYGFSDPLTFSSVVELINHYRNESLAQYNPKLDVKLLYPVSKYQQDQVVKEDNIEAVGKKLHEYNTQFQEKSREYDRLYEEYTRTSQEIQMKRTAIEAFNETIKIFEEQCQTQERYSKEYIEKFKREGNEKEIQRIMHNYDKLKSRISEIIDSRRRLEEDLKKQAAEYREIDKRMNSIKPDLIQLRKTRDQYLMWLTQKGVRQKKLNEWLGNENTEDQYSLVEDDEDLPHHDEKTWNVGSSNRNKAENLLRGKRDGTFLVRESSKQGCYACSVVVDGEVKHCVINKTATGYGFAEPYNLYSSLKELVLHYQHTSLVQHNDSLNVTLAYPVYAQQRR
- experiment: ELISA assay for PI3Kδ: sandwich ELISA, phosphorylation of AKT (Thr308) in Raji cells
- Assay type: cell-based
- applied_conditions: ratio of cellular IC50 values, Table 2
quantity_name: α/δ ratio

> print(dat)
                           substance.smiles           target.desc  endpoint.result
1  CN1CCC(c2ccccc2CC(C)(C)Nc2nc(N3CCOCC3)nc(-n3c(C(F)F)nc4ccccc43)n2)CC1  PI3Kδ (Homo sapiens)               A’
2  Cc1ccccc1-c1ccccc1CC(C)(C)Nc1nc(N2CCOCC2)nc(-n2c(C(F)F)nc3ccccc32)n1  PI3Kδ (Homo sapiens)               A’
3  CC(C)(Cc1c(F)cccc1F)Nc1nc(N2CCOCC2)nc(-n2c(C(F)F)nc3ccccc32)n1  PI3Kδ (Homo sapiens)               A’
4  CC(C)(Cc1ccccc1C1CCNCC1)Nc1nc(N2CCOCC2)nc(-n2c(C(F)F)nc3ccccc32)n1  PI3Kδ (Homo sapiens)               A’

Task: Bench note: what α/δ ratio did CC(C)(Cc1ccccc1-c1cn[nH]c1)Nc1nc(N2CCOCC2)nc(-n2c(C(F)F)nc3ccccc32)n1 show?
Result: A’

Task: Need α/δ ratio of Cn1cc(-c2ccccc2CC(C)(C)Nc2nc(N3CCOCC3)nc(-n3c(C(F)F)nc4ccccc43)n2)cn1 , thanks.
Result: A’

* * *

pIC50: −log10 of the molar value.
Measurement record for PI3K alpha (Homo sapiens); quantity recorded: pIC50.

Consider the worked cases shown below.
> print(dat)
                                   molecule  endpoint.result
1  Cc1cc(-c2ccccc2CC(C)(C)Nc2nc(N3CCOCC3)nc(-n3c(C(F)F)nc4ccccc43)n2)ccn1 [Compound A43]     6.30 to 6.70
2  Cn1nccc1-c1ccccc1CC(C)(C)Nc1nc(N2CCOCC2)nc(-n2c(C(F)F)nc3ccccc32)n1 [Compound A46]     6.30 to 6.70
3  Cc1ccccc1CC(C)(C)Nc1nc(N2CCOCC2)nc(-n2c(C(F)F)nc3ccccc32)n1 [Compound A18]           < 6.30

With those in mind, consider the next molecule.
Task: Can you look up pIC50 on PI3K alpha (Homo sapiens) for COC(=O)[C@@H](Nc1nc(N2CCOCC2)nc(-n2c(C(F)F)nc3ccccc32)n1)c1ccccc1 [Compound A12] ?
Result: < 6.30

* * *

- target_desc: PI3K delta (Homo sapiens, UniProt O00329)
- Sequence (O00329 whole entry, species assumed): as the sequence (O00329 whole entry) above
- Sequence (P27986 whole entry partner, species assumed): as the sequence (P27986 whole entry partner) above
- experiment: Luciferase-based luminescence assay (KinaseGlo), PI3K delta enzymatic activity
- applied_conditions: inhibition of enzymatic activity, KinaseGlo, 25 μM ATP; read-out: IC50 p110δ
pIC50: −log10 of the molar value.
Some molecules, each annotated with its measured pIC50.

> print(dat)
                           substance.smiles  quantity.name  endpoint.result
1  CC(C)(Cc1ccccc1-c1cn[nH]c1)Nc1nc(N2CCOCC2)nc(-n2c(C(F)F)nc3ccccc32)n1          pIC50           ≥ 7.00
2  COc1cc(CC(C)(C)Nc2nc(N3CCOCC3)nc(-n3c(C(F)F)nc4ccccc43)n2)ccc1F          pIC50           ≥ 7.00
3  CC[C@@H](Nc1nc(N2CCOCC2)nc(-n2c(C(F)F)nc3ccccc32)n1)c1ccccc1          pIC50           < 6.30
4  CC(C)(Cc1ccccc1-c1cccnc1)Nc1nc(N2CCOCC2)nc(-n2c(C(F)F)nc3ccccc32)n1          pIC50           ≥ 7.00
5  CC(C)(Cc1ccccc1-c1ccccc1Cl)Nc1nc(N2CCOCC2)nc(-n2c(C(F)F)nc3ccccc32)n1          pIC50           ≥ 7.00

# context switch: different molecule, same pIC50
Task: Entry under review: Cc1ccccc1-c1ccccc1CC(C)(C)Nc1nc(N2CCOCC2)nc(-n2c(C(F)F)nc3ccccc32)n1 . Reported pIC50?
Result: ≥ 7.00

* * *

- target_desc: PI3K beta (Homo sapiens)
- Construct: purchased Millipore, Billerica, MA, USA
- experiment: Luciferase-based luminescence assay (ADP Glo), PI3K beta enzymatic activity
- Format: biochemical
- applied_conditions: ratio of enzymatic IC50 values, Table 1
quantity_name: α/β ratio

Here are 5 molecules together with their reported answers.
> print(dat)
                           substance.smiles  endpoint.result
1  CC(C)(Cc1ccccc1-c1ccccc1Cl)Nc1nc(N2CCOCC2)nc(-n2c(C(F)F)nc3ccccc32)n1               A’
2  COc1ccc(-c2ccccc2CC(C)(C)Nc2nc(N3CCOCC3)nc(-n3c(C(F)F)nc4ccccc43)n2)cc1               D’
3  CC(C)(Cc1ccc(F)cc1)Nc1nc(N2CCOCC2)nc(-n2c(C(F)F)nc3ccccc32)n1               C’
4  Cc1ccccc1-c1ccccc1CC(C)(C)Nc1nc(N2CCOCC2)nc(-n2c(C(F)F)nc3ccccc32)n1               A’
5  CC(C)(Cc1ccccc1-c1ccncc1)Nc1nc(N2CCOCC2)nc(-n2c(C(F)F)nc3ccccc32)n1               B’

Task: Suppose we examine the molecule CC(C)(Cc1ccccc1-c1ccccc1F)Nc1nc(N2CCOCC2)nc(-n2c(C(F)F)nc3ccccc32)n1 ; what α/β ratio value has been reported?
Result: C’

Task: What value of measured α/β ratio is listed for CC(C)(Cc1ccccc1-c1cn[nH]c1)Nc1nc(N2CCOCC2)nc(-n2c(C(F)F)nc3ccccc32)n1 ?
Result: A’

* * *

- target_desc: PI3K delta (Homo sapiens)
- Construct: purchased Millipore, Billerica, MA, USA
- experiment: Luciferase-based luminescence assay (KinaseGlo), PI3K delta enzymatic activity
- Type: biochemical
- applied_conditions: ratio of enzymatic IC50 values, Table 1
quantity_name: β/δ ratio

Completed entries (count: 6):
> print(dat)
                           substance.smiles  quantity.name  endpoint.result
1  CC(C)(Cc1ccccc1-c1ccccc1Cl)Nc1nc(N2CCOCC2)nc(-n2c(C(F)F)nc3ccccc32)n1      β/δ ratio               D’
2  CCN1CCC(c2ccccc2CC(C)(C)Nc2nc(N3CCOCC3)nc(-n3c(C(F)F)nc4ccccc43)n2)CC1      β/δ ratio               A’
3  C[C@H](Nc1nc(N2CCOCC2)nc(-n2c(C(F)F)nc3ccccc32)n1)c1ccccc1      β/δ ratio               A’
4  CC(C)(Cc1cccc(F)c1)Nc1nc(N2CCOCC2)nc(-n2c(C(F)F)nc3ccccc32)n1      β/δ ratio               D’
5  CC(C)(Cc1cccc(Cl)c1)Nc1nc(N2CCOCC2)nc(-n2c(C(F)F)nc3ccccc32)n1      β/δ ratio               D’
6  Cc1cc(-c2ccccc2CC(C)(C)Nc2nc(N3CCOCC3)nc(-n3c(C(F)F)nc4ccccc43)n2)ccn1      β/δ ratio               D’

Task: Using the record for CN1CCN(c2cc(-c3ccccc3CC(C)(C)Nc3nc(N4CCOCC4)nc(-n4c(C(F)F)nc5ccccc54)n3)ccn2)CC1 , report its β/δ ratio.
Result: D’

* * *

- target_desc: PI3K beta (Homo sapiens, UniProt P42338)
- Construct: purchased Millipore, Billerica, MA, USA
- Sequence (P42338 whole entry, species assumed): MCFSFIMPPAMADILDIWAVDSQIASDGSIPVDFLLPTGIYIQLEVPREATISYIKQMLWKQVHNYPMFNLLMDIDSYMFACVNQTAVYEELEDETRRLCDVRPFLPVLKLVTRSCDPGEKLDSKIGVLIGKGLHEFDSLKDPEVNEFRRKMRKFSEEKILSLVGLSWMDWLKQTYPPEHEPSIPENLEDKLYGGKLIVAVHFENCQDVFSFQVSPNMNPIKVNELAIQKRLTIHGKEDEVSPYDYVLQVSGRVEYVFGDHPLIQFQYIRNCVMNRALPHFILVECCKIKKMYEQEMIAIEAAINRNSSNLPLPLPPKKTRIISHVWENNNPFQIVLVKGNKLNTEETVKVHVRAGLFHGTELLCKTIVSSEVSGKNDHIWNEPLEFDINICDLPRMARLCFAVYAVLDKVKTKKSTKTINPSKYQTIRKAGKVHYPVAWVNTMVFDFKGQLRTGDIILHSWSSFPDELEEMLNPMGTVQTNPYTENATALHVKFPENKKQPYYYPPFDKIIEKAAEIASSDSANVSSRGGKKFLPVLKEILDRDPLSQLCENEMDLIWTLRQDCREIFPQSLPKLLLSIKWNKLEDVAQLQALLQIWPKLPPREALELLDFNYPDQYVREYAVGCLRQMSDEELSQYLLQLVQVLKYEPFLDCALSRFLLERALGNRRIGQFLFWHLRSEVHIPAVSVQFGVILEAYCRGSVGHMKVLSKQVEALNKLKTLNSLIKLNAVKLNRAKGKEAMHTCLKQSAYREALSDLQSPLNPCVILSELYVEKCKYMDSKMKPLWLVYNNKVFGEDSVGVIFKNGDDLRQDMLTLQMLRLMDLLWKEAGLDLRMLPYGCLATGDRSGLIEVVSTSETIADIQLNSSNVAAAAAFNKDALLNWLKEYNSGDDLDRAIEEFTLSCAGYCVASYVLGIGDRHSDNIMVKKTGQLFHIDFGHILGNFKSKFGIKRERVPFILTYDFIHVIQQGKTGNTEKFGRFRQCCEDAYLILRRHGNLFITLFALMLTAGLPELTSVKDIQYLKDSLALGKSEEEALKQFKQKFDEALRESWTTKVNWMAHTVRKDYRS
- Sequence (P27986 whole entry partner, species assumed): as the sequence (P27986 whole entry partner) above
- experiment: Luciferase-based luminescence assay (ADP Glo), PI3K beta enzymatic activity
- Type: biochemical
- applied_conditions: ratio of enzymatic IC50 values, Table 1
quantity_name: α/β ratio

> print(dat)
                                   compound                               target.desc  endpoint.result
1  CC(C)(Cc1ccccc1Cl)Nc1nc(N2CCOCC2)nc(-n2c(C(F)F)nc3ccccc32)n1 [Compound A16]  PI3K beta (Homo sapiens, UniProt P42338)               A’
2  CN1CCC(c2ccccc2CC(C)(C)Nc2nc(N3CCOCC3)nc(-n3c(C(F)F)nc4ccccc43)n2)CC1 [Compound A35]  PI3K beta (Homo sapiens, UniProt P42338)               B’
3  CC(C)(Cc1ccccc1)Nc1nc(N2CCOCC2)nc(-n2c(C(F)F)nc3ccccc32)n1 [Compound A14]  PI3K beta (Homo sapiens, UniProt P42338)               A’
4  Cn1cc(-c2ccccc2CC(C)(C)Nc2nc(N3CCOCC3)nc(-n3c(C(F)F)nc4ccccc43)n2)cn1 [Compound A45]  PI3K beta (Homo sapiens, UniProt P42338)               A’
